Molecular target: PD-1 (UniProt Q15116 25-167, limits assumed)
Sequence (Q15116 25-167 limits assumed): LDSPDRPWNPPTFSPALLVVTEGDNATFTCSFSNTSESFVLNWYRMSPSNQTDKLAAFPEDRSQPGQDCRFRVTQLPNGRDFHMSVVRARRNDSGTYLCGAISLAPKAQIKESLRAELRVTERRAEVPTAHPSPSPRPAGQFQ
Assay: ELISA, OD mutant/OD WT; A=90-110%
measurement_kind: binding activity (OD after mutation/OD wild type)

**Q:** Request the reported binding activity (OD after mutation/OD wild type) associated with anti-PD-1 antibody 1 light chain S60C (antibody, human IgG4 S228P, kappa, V domains shown) VH: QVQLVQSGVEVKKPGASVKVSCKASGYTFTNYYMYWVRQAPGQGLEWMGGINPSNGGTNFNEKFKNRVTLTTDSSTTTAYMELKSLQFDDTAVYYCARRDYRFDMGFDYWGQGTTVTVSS VL: EIVLTQSPATLSLSPGERATLSCRASKGVSTSGYSYLHWYQQKPGQAPRLLIYLASYLECGVPARFSGSGSGTDFTLTISSLEPEDFAVYYCQHSRDLPLTFGGGTKVEIKR
**A:** 90 to 110%

Origin of values: patent US20230158141A1
